Value source: paper PMC10180428

Biological target: UniProtKB P53341
Test: Inhibition kinetics analysis (Lineweaver–Burk plots and secondary plots)
Format: biochemical
Settings: Lineweaver–Burk plots
QUANTITY_MEASURED: inhibition type against AGS

Ask | Give the measured inhibition type against AGS for `O=C1N[C@@H](Cc2c[nH]c3ccccc23)C(=O)N[C@H]1CO`
Reply | mixed-type manner

Ask | Give the measured inhibition type against AGS for `CC[C@H](C)[C@@H]1NC(=O)[C@H](CC(C)C)NC1=O`
Reply | mixed-type manner

Ask | Give the measured inhibition type against AGS for `CC[C@H](C)[C@@H]1NC(=O)[C@H](Cc2ccc(O)cc2)NC1=O`
Reply | mixed-type manner

----------
Quick reference: Ki of the listed items.
Biological target: α-Glucosidase (AGS) (Saccharomyces cerevisiae, UniProt P53341)
Sequence (P53341 whole entry): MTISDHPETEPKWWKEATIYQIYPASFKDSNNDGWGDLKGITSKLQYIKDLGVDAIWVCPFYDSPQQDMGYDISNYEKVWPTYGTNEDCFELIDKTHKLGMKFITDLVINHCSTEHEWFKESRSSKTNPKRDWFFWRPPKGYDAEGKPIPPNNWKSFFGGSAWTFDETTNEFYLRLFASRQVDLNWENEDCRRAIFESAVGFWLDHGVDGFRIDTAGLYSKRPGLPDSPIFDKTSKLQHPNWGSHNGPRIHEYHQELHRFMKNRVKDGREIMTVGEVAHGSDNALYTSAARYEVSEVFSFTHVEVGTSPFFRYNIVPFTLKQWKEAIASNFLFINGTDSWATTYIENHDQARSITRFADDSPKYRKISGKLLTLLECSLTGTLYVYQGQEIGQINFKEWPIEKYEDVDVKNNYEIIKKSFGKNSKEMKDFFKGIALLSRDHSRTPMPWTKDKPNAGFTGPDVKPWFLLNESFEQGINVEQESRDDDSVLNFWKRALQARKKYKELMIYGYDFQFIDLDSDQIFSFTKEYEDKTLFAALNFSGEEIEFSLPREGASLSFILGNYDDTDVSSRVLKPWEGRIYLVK
Experiment: Inhibition kinetics analysis (Lineweaver–Burk plots and secondary plots)
Assay type: biochemical
Details: secondary plot of Y-intercept versus [I]; binding to AGS-substrate complex; read-out: Ki
Give the value, in units of µM, as a plain number.

Ask | Give the measured Ki for `CC[C@H](C)[C@@H]1NC(=O)[C@H](CC(C)C)NC1=O`
Reply | 78.89

Ask | Give the measured Ki for `O=C1N[C@@H](Cc2c[nH]c3ccccc23)C(=O)N2CCC[C@@H]12`
Reply | 46.28

Ask | Give the measured Ki for `CC[C@H](C)[C@@H]1NC(=O)[C@H](Cc2ccc(O)cc2)NC1=O`
Reply | 531.53

Ask | Give the measured Ki for `O=C1N[C@@H](Cc2c[nH]c3ccccc23)C(=O)N[C@H]1CO`
Reply | 238.78

Further cases:
Ask | Give the measured Ki for COC1CCC=C(C)C(=O)Nc2cc(O)cc(c2)CC(C)CC(OC)C(O)C(C)C=C(C)C1OC(N)=O (centres unmarked)
Reply | 53.10

----------
Biological target: UniProtKB P53341
Assay: biochemical
Settings: read-out: AGS inhibitory activity IC50
QUANTITY_MEASURED: pIC50
On this scale, pIC50 is minus log10 of a concentration expressed in M (mol/L).

Ask | Please report pIC50 with UniProtKB P53341 for item `C[C@@H]1NC(=O)[C@@H]2CCCN2C1=O` .
Reply | 4.25

Further cases:
Ask | Please report pIC50 with UniProtKB P53341 for item `CC[C@H](C)[C@@H]1NC(=O)[C@H](CC(C)C)NC1=O` .
Reply | 4.13

Ask | Please report pIC50 with UniProtKB P53341 for item O=C1NC(Cc2ccccc2)C(=O)NC1CO (stereo not shown) .
Reply | 4.21

Ask | Please report pIC50 with UniProtKB P53341 for item `O=C1N[C@@H](Cc2c[nH]c3ccccc23)C(=O)N[C@H]1CO` .
Reply | 3.78

Ask | Please report pIC50 with UniProtKB P53341 for item `O=C1N[C@@H](Cc2c[nH]c3ccccc23)C(=O)N2CCC[C@@H]12` .
Reply | 4.27

Ask | Please report pIC50 with UniProtKB P53341 for item `CC[C@H](C)[C@@H]1NC(=O)[C@H](Cc2ccc(O)cc2)NC1=O` .
Reply | 4.00

Ask | Please report pIC50 with UniProtKB P53341 for item COC1CCC=C(C)C(=O)Nc2cc(O)cc(c2)CC(C)CC(OC)C(O)C(C)C=C(C)C1OC(N)=O (stereo not shown) .
Reply | 4.45
